Recorded viability at 10 µM for the following compounds
- Tested on: U-87MG
- assay remarks: MTT test, cytotoxic activity on non-clonogenic cell lines
- Assay type: cell-based
- experimental parameters: Homo sapiens, U-87 MG; 10^−5 M, 72 hours of incubation, control condition = 100%, mean value; read-out: mean optical density as percentage of control, U-87MG

compound: COc1cc2[nH]cc(-c3ccccc3)c(=O)c2cc1OC [CRL8355]
viability at 10 µM: 94.4%
//
compound: CCN(CC)C(=O)Cn1cc(-c2ccc(OC)cc2)c(=O)c2c(OC)ccc(OC)c21 [CRL8380]
viability at 10 µM: 87.5%
//
compound: COc1ccc(-c2cn(CCC#N)c3cc(OC)cc(OC)c3c2=O)cc1 [CRL8412]
viability at 10 µM: 83.4%
//
compound: COc1ccc(-c2c[nH]c3c(OC)cccc3c2=O)cc1 [CRL8329]
viability at 10 µM: 1.38%
//
compound: COc1ccc(-c2cn(C)c3c(OC)ccc(O)c3c2=O)cc1 [CRL8392]
viability at 10 µM: 82.7%
//
compound: COc1ccc(-c2c[nH]c3c(OC)ccc(OC)c3c2=O)cc1 [CRL8351]
viability at 10 µM: 116%
//
compound: COc1ccc(-c2cn(CCCC#N)c3c(OC)ccc(OC)c3c2=O)cc1 [CRL8421]
viability at 10 µM: 29.9%
//
compound: COc1ccc(OC)c2c(=O)c(-c3ccccc3)c[nH]c12 [CRL8353]
viability at 10 µM: 107%
//
compound: COc1ccc(-c2cn(CCN(C)C)c3cc(OC)cc(OC)c3c2=O)cc1 [CRL8350]
viability at 10 µM: 85.6%
//
compound: CCOC(=O)Cn1cc(-c2ccc(OC)cc2)c(=O)c2c(OC)cc(OC)cc21 [CRL8360]
viability at 10 µM: 97.6%
//
compound: COc1ccc(-c2cn(C)c3c(OC)ccc(-c4ccccc4)c3c2=O)cc1 [CRL8405]
viability at 10 µM: 25.8%
//
compound: COc1ccc(-c2cn(C)c3cc(OC)cc(O)c3c2=O)cc1 [CRL8377]
viability at 10 µM: 49.5%
//
compound: COc1ccc(-c2cn(CCCC#N)c3cc(OC)cc(OC)c3c2=O)cc1 [CRL8420]
viability at 10 µM: 92.9%
//
compound: COc1ccc(-c2cn(C)c3cc(OC)cc(NCc4ccccc4)c3c2=O)cc1 [CRL8424]
viability at 10 µM: 87.9%
//
compound: COc1ccc(-c2c[nH]c3cc(OC)cc(OC)c3c2=O)cc1 [CRL8337]
viability at 10 µM: 84.4%
//
compound: O=c1c(-c2ccccc2)c[nH]c2ccccc12 [CRL8326, 3-Phenyl-1,4-dihydro-4-quinolinone]
viability at 10 µM: 102%
//
compound: COc1ccc(-c2cnc3c(OC)ccc(OC)c3c2OCCN(C)C)cc1 [CRL8370]
viability at 10 µM: 104%
//
compound: COc1ccc(-c2cn(C)c3cc(OC)cc(N4CCOCC4)c3c2=O)cc1 [CRL8435]
viability at 10 µM: 85%
//
compound: CCc1cc(OC)cc2c1c(=O)c(-c1ccc(OC)cc1)cn2C [CRL8393]
viability at 10 µM: 89.9%
//
compound: COc1ccc(-c2cn(C)c3c(OC)ccc(OC)c3c2=O)cc1 [CRL8371]
viability at 10 µM: 58.7%
//
compound: COc1ccc(-c2c[nH]c3c(OC)ccc(O)c3c2=O)cc1 [CRL8391]
viability at 10 µM: 74%
//
compound: COc1ccc(-c2cn(C)c3cc(OC)cc(-c4ccccc4)c3c2=O)cc1 [CRL8394]
viability at 10 µM: 42.2%
//
compound: COc1ccc2c(c1)c(=O)c(-c1ccccc1)cn2C [CRL8379]
viability at 10 µM: 95.3%

These measurements were taken from patent US6645983B1.
